Values from ChEMBL document CHEMBL1201862

- System: U-251
- Assay Info: NCI tumour cell line growth inhibition, 48 h
Active and inactive are the calls of the source. Cut-off read from the data, not from the text of the source: active = GI50 up to about 1.1 µM and inactive = higher.
Thanks in advance; please answer with one of these: y (active), n (inactive)

Example cases with answers are listed next.
Cc1ccc(-c2n[nH]c(=O)[nH]2)cc1[N+](=O)[O-]: n
O/N=C1\C(=C\c2ccc3c(c2)OCCO3)CCCC1C(NO)c1ccc2c(c1)OCCO2 (stereo not given): n
Nc1nc(-c2ccc(Cl)c([N+](=O)[O-])c2)cs1: n
[O-][n+]1ccc(NO)c2ccccc21: y
C/N=c1/ss/c(=N\C(SC)=[N+](C)C)n1C.[O-][Cl+3]([O-])([O-])[O-]: n
C[C@]12CCC(=O)C(O)=C1CCC2=O: n
CC1=CCC[C@]2(C)C1=CC(=O)O[C@H]2c1ccoc1: n
CCOC(=O)CN(CC)C(=O)NC12CC3CC(CC(C3)C1)C2: n
N#Cc1cc2c(n(C3OC(CO)C(O)C(O)C3O)c1=S)CCC2 (stereo not given): n
CCCCN(C)/N=N/c1[nH]cnc1C(N)=O: n

Ask | Give the logged outcome of this assay for the following compound: Sc1nnc(C23CC4CC(CC(C4)C2)C3)n1-c1ccc(Cl)cc1
Reply | n

Ask | Give the logged outcome of this assay for the following compound: O=c1cc(-c2ccccc2)nc(-n2[nH]c3c(c2=O)CCCC3)[nH]1
Reply | n

Ask | Give the logged outcome of this assay for the following compound: CC(C)(Cl)C(Br)CCC(C)(Cl)C(Br)CBr (stereo not given)
Reply | n

Ask | Give the logged outcome of this assay for the following compound: CC1CCC2C(C)C(OC(=O)CCC(=O)O)OC3OC4(C)CCC1C32OO4 (stereo not given)
Reply | n

Ask | Give the logged outcome of this assay for the following compound: Cc1ccc(C)c(N2C(=O)C(=O)C(c3nc4ccccc4s3)/C(=N/N)C2=O)c1 (stereo not given)
Reply | n

Ask | Give the logged outcome of this assay for the following compound: Oc1ccc2c(c1)OCC(O)(c1ccccc1O)C2 (stereo not given)
Reply | n

Ask | Give the logged outcome of this assay for the following compound: CC(C)(O)CCC(O)C(C)(O)C1CCC2(O)C3=CC(=O)C4(O)CC(O)C(O)CC4(C)C3CCC12C.CC(C)(O)CCC(O)C(C)(O)C1CCC2(O)C3=CC(=O)C4CC(O)C(O)CC4(C)C3CCC12C (stereo not given)
Reply | n

Ask | Give the logged outcome of this assay for the following compound: CN(N=O)C(=O)NC(CCCCNC(=O)OCc1ccccc1)C(=O)OCc1ccccc1 (stereo not given)
Reply | n

Ask | Give the logged outcome of this assay for the following compound: CC1CCCC2(O1)OC1CC(=O)OC1C1=C2C(=O)c2ccccc2C1=O (stereo not given)
Reply | n

Ask | Give the logged outcome of this assay for the following compound: COC(=O)C(CCC1(C)OCCO1)=[N+]=[N-]
Reply | n
